subject-of-test: human serum albumin (HSA) (Homo sapiens) (UniProt P02768)
test-details: ELONA
experimental-parameters: Nap-dU at all positions marked 6 (n); bead-based ELISA, buffer SB18 (5 mM MgCl2), 37 C
Please go through the items and note down their pKd.
Give bare numbers, as −log10 of the molar value.

In [3]: df
Out[3]:
                        biopolymer_sequence  observation_type  reported
0  CTCTCCCAGGTCGAGCTGTACGCGTGTGTGACCTGACGTG [AL002]               pKd      7.68

Hello, I would appreciate it if you could give pKd for each entry below.
1. CTCTCCCAGGTCGAGCTGTACGCGTGTGTGACCTG [AL003]
2. TCCCAGGTCGAGCTGTACGCGTGTGTGACC [AL005]
3. CAGGTCGAGCTGTACGCGTGTGTGACCTG [AL006]

Reply:
8.65
7.83
7.72
